Recorded fold induction at 10 µM, one value per entry.
test system: differentiated 3T3-L1 mouse adipocyte cells; test: Adipocyte glucose consumption in differentiated 3T3-L1 mouse adipocyte cells (loss of glucose from medium, colorimetric); assay type: cell-based; details: compound 10 μM, 22 to 24 hours, differentiated 3T3-L1 adipocytes, compound/DMSO, read-out: Glucose consumption (fold change) Mean
Answer using only a numeral; do not append any unit.

Sample records with fold induction at 10 µM:
{"columns": ["compound", "fold induction at 10 µM"],
 "data": [
  ["CCC1CCCCc2c1c1cccc(C(=O)O)c1n2Cc1cccc(C(N)=O)c1 (centres unmarked)", 0.99],
  ["CCCC1CCCCc2c1c1cccc(C(=O)O)c1n2Cc1cccc(C(N)=O)c1 (centres unmarked)", 1.02],
  ["CCCCCCC1CCCc2c(n(Cc3ccc4ocnc4c3)c3c(C(=O)O)cccc23)C1 (centres unmarked)", 0.87],
  ["CCC1CCCc2c1n(Cc1cccc(C(=O)O)c1)c1c(C(=O)O)cccc21 (centres unmarked)", 1.09]
]}

From here, focus on the item given below.
// sample CCCCC1CCCc2c(n(Cc3ccc(C(N)=O)cc3)c3c(C(=O)O)cccc23)C1 (centres unmarked) , its fold induction at 10 µM was 1.13

---

Test system: differentiated 3T3-L1 mouse adipocyte cells
Assay: Adipocyte glucose consumption in differentiated 3T3-L1 mouse adipocyte cells (loss of glucose from medium, colorimetric)
Format: cell-based
Settings: compound 10 μM, 22 to 24 hours, differentiated 3T3-L1 adipocytes, compound/DMSO, read-out: Glucose consumption (fold change) Mean
Method: Activity of compounds on adipocyte glucose consumption was tested in differentiated 3T3-L1 mouse adipocyte cells. […] Glucose concentration in the supernatants was determined using a colorimetric assay (Glucose Assay Kit I, Eton Biosciences). Glucose consumption in compound and vehicle treated cells was measured as loss of glucose from the culture medium and represented as mean fold change (compound/DMSO) t standard deviation (SD).
assay endpoint: fold induction at 10 µM
Answer using only a numeral; do not append any unit.

// sample CCCCC1CCCc2c(n(Cc3cccc(C(N)=O)c3)c3c(C(=O)NCC(=O)O)cccc23)C1 (centres unmarked) , its fold induction at 10 µM was 0.9

// sample CCCCCCCCC1CCCc2c(n(Cc3cccc(C(N)=O)c3)c3c(C(=O)O)cccc23)C1 (centres unmarked) , its fold induction at 10 µM was 1.13

// sample CCCCC1CCCCc2c1n(Cc1cccc(C#N)c1)c1c(C(=O)O)cccc21 (centres unmarked) , its fold induction at 10 µM was 1.16

// sample CCCCCCC1CCc2c(n(Cc3ccnc(OC)c3)c3c(C(=O)O)cccc23)C1 (centres unmarked) , its fold induction at 10 µM was 1.19

// sample CCCOC1CCCc2c1n(Cc1cccc(C(N)=O)c1)c1c(C(=O)O)cccc21 (centres unmarked) , its fold induction at 10 µM was 1.03

---

target: His6 tagged human recombinant FABP4 (Homo sapiens, UniProt P15090); construct: purchased Cayman Chemicals 10009549; experiment: FABP4 Tb TR-FRET assay: displacement of BODIPY FL C12 fatty acid from His6-FABP4; conditions: 1 μM compound, triplicates, inhibition of BODIPY FL C12 binding
Sequence (P15090 whole entry): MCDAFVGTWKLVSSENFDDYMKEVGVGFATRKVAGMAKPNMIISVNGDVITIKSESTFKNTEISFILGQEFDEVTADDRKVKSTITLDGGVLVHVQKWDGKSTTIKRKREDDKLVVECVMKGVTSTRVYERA
Binary call on inhibition at 1 µM: satisfied from 90% upward, not satisfied beneath that.

As a guide, the following entries are already answered.
{"columns": ["compound", "assigned label"],
 "data": [
  ["CCCCCCC1CCCc2c(n(Cc3cc(C#N)cs3)c3c(C(=O)O)cccc23)C1 (stereo not drawn)", "not satisfied"],
  ["CCCCCCC1CCCc2c(n(Cc3cccc(C(F)(F)F)n3)c3c(C(=O)O)cccc23)C1 (stereo not drawn)", "not satisfied"]
]}

Input: Is reported inhibition at 1 µM greater than or equal to 90% here: CCCCCCC1CCCc2c(n(Cc3cccc(OC)c3)c3c(C(=O)O)cccc23)C1 (stereo not drawn)
Output: satisfied

Input: Is reported inhibition at 1 µM greater than or equal to 90% here: N#Cc1cccc(Cn2c3c(c4cccc(C(=O)O)c42)CCC(CCc2ccccc2)C3)c1 (stereo not drawn)
Output: satisfied

Origin of values: patent US20230331673A1
